Cited source for all entries: patent US20240376085A1

# System: IL-17A-induced G-CSF production in human normal keratinocyte (NHK)
# EXPERIMENT NOTES: NHK assay: IL-17A-induced G-CSF production in normal human keratinocytes
# Assay type: cell-based
# CONDITION CONTEXT: Homo sapiens, Keratinocyte, 24 h, IL-17A 5 ng/mL, average if tested more than once
The following molecules are listed with their measured IC50 values.

INPUT: Give the measured IC50 of C[C@@H](NC(=O)CCC(F)(F)F)c1ccc2[nH]c([C@@H](NC(=O)c3cnn(CC4CC(F)(F)C4(F)F)n3)C3CCC(F)(F)CC3)nc2c1 (stereo partly drawn) [Example 83] .
OUTPUT: > 100 nM

INPUT: Thanks! And CC(C)c1nocc1C(=O)N[C@H](c1nc2cc([C@@H](C)NC(=O)CCC(F)(F)F)ccc2[nH]1)C1CCC(F)(F)CC1 [Example 204] ?
OUTPUT: < 50 nM

INPUT: Thanks! And C[C@@H](NC(=O)CCC(F)(F)F)c1ccc2nc([C@@H](NC(=O)c3cnn(CC4CCC4)n3)C3CCC(F)(F)CC3)[nH]c2c1 [Example 62] ?
OUTPUT: > 100 nM

INPUT: Thanks! And C[C@@H](NC(=O)CC(C(F)(F)F)C(F)(F)F)c1ccc2[nH]c([C@@H](NC(=O)c3ccnn3CCC(F)(F)F)C3CCC(F)(F)CC3)nc2c1 [Example 126] ?
OUTPUT: 50 to 100 nM

INPUT: Thanks! And C[C@@H](NC(=O)CCC(F)(F)F)c1ccc2[nH]c([C@@H](NC(=O)c3cncn3CCC(F)(F)F)C3CCC(F)(F)CC3)nc2c1 [Example 216] ?
OUTPUT: > 100 nM

INPUT: Thanks! And CC(Cn1nncc1C(=O)N[C@H](c1nc2ccc([C@@H](C)NC(=O)CCC(F)(F)F)cc2[nH]1)C1CCC(F)(F)CC1)C(F)(F)F (single isomer, unassigned) [Example 71] ?
OUTPUT: > 100 nM

INPUT: Thanks! And C[C@@H](NC(=O)CCC(F)(F)F)c1ccc2[nH]c([C@@H](NC(=O)c3cnn(CC(F)(F)F)n3)C3CCC(F)(F)CC3)nc2c1 [Example 22] ?
OUTPUT: > 100 nM

INPUT: Thanks! And CC(C)(O)c1nonc1C(=O)N[C@@H](COC(C)(C)C(F)(F)F)c1nc2cc([C@H](NC(=O)CC3CC(F)(F)C3)C3CC3)ccc2[nH]1 [Example 168] ?
OUTPUT: > 100 nM

---
INPUT: Give the measured IC50 of CC(Cn1ncc(C(=O)N[C@H](c2nc3ccc([C@@H](C)NC(=O)CCC(F)(F)F)cc3[nH]2)C2CCC(F)(F)CC2)n1)C(F)(F)F (single isomer, unassigned) [Example 69] .
OUTPUT: > 100 nM

INPUT: Thanks! And C[C@@H](NC(=O)CCC(F)(F)F)c1ccc2[nH]c([C@@H](NC(=O)C3(F)CC3)C3CCC(F)(F)CC3)nc2c1 [Example 96] ?
OUTPUT: > 100 nM

INPUT: Thanks! And C[C@@H](NC(=O)CCC(F)(F)F)c1ccc2[nH]c([C@@H](NC(=O)c3conc3C3CC3)C3CCC(F)(F)CC3)nc2c1 [Example 209] ?
OUTPUT: < 50 nM

INPUT: Thanks! And O=C(CC1CC(F)(F)C1)N[C@@H](c1ccc2nc([C@@H](NC(=O)c3nonc3C3CC3)[C@@H]3CCCC(F)(F)C3)[nH]c2c1)C1CC1 [Example 171] ?
OUTPUT: < 50 nM
